biological target: Voltage-gated potassium channel subunit beta-2 (Rattus norvegicus) (UniProt P62483); assay: inhibitors of rat Kvbeta2 reductase activity – biochemical, NADPH fluorescence, primary screen (AID 622); settings: recombinant KvBeta, 4-cyanobenzaldehyde reduction, at 10 µM, stronger effect = higher value;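 also: slope of raw intensity against log time taken from 70 to 1610 s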
Sequence (P62483 whole entry, looked up): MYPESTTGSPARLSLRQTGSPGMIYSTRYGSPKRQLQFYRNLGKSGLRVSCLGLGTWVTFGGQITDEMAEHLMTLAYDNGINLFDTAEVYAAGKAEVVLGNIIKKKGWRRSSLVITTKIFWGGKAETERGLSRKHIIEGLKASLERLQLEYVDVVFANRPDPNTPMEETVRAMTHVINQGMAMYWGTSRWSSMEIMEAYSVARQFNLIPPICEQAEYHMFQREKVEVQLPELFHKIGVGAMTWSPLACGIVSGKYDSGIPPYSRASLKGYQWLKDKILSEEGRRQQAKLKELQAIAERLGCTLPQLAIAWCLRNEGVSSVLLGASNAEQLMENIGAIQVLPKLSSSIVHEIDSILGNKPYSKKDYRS
Quick reference for fluorescence slope among some compounds
Answer with a number only.

Worked cases, fluorescence slope given:
| COMPOUND | fluorescence slope |
| --- | --- |
| CCOc1ccc(N(CC(=O)Nc2ccc(F)c(F)c2)S(=O)(=O)c2c(C)noc2C)cc1 | -0.521 |
| Cc1cc(C)n(C(=O)CCCCCC(=O)n2nc(C)cc2C)n1 | -0.524 |
| O=C(Nc1cccc2ncccc12)c1ccc2c(c1)OCCO2 | -0.46 |
| COC(=O)c1c(C)oc2ccc(NS(=O)(=O)c3cccs3)cc12 | -0.534 |
| CC1=C(C(=O)Nc2ccccc2C)C(c2ccc(C)o2)N2C(=O)CSC2=N1 (centres undefined) | -0.44 |
| Cc1sc2nc(SCC(=O)N3CCN(CCO)CC3)n(-c3ccccc3)c(=O)c2c1C | -0.456 |

Lookup: Looking for the measured fluorescence slope of Cc1ccc2nc(C3CCN(CC(=O)N4CCCCCC4)CC3)[nH]c2c1 , can you help?
Found: -0.453

Lookup: Form field: reported fluorescence slope of CCCCn1c(CN(C)Cc2ccccc2)nc2c1c(=O)n(C)c(=O)n2C
Found: -0.605

Lookup: Recorded fluorescence slope for CSc1nnc(-c2ccccc2)n1C , please?
Found: -0.398

* * *

assay: endothelial E-selectin expression blockers – imaging, HUVEC, immunofluorescence, MLSMR starter and 10KST1 sets, primary screen (AID 487); conditions: HUVEC TNFalpha-induced E-selectin immunofluorescence imaging, at 2 µM; stronger effect = higher value;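 as to inhibition: signal is fraction of cell area covered by stained E-selectin grains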
inhibition reference
Give a bare numeral; the unit % is implied.

The cases that follow already have their inhibition on record.
| MOLECULE | inhibition / % |
| --- | --- |
| Nc1c(C(=O)NCc2ccco2)nnn1Cc1ccccc1 | -65.2 |
| CC(=O)N1CCN(S(=O)(=O)c2ccc(S(=O)(=O)NCC(C)C)cc2)CC1 | -10.2 |
| CC(=O)C1=C(O)C(=O)N(C2CCCCC2)C1c1ccccc1 (stereo unspecified) | -95.4 |

Lookup: May I ask what inhibition has been recorded for CC(=O)Nc1ccc(S(=O)(=O)N2CCN(C(C)CCc3ccccc3)CC2)cc1 (stereo unspecified) ?
Found: 1.2

Lookup: inhibition for Cc1cc2ccccc2n1CCNC(=O)C1CC1 ?
Found: -35

Lookup: Return reported inhibition; argument: S=C(c1ccc(N2CCOCC2)cc1)N1CCCCC1
Found: -68.1

Lookup: Please look up its inhibition: O=C(c1ccc2ccccc2n1)N1CCN(c2ccccc2)CC1
Found: -78.3

* * *

target: Alpha-2C adrenergic receptor (Homo sapiens) (UniProt P18825); assay: compounds altering alpha2C-coupled GIRK flux – cell-based, HEK293 alpha2C/GIRK1/2, thallium flux, primary screen (AID 624); conditions: thallium flux BTC fluorescence, at 10 µM, actives lie on both sides;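 also: slope of fluorescence ratio to pre-addition baseline per second over 15 to 24 s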
Sequence (P18825 whole entry, looked up): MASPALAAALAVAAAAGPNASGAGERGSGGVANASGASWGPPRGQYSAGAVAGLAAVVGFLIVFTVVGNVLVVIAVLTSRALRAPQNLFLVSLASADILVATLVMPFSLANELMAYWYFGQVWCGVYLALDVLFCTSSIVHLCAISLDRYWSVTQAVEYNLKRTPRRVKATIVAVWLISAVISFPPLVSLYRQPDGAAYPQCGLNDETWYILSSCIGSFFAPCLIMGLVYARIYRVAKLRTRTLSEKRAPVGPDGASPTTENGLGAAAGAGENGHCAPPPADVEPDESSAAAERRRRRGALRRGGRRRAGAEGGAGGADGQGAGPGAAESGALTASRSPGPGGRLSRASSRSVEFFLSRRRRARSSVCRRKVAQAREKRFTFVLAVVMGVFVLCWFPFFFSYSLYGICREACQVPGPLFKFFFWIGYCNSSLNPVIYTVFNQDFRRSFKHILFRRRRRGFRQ
ATTRIBUTE_MEASURED: slope
Answer with the value's number alone.

// known answers, use as guide
| MOLECULE | slope |
| --- | --- |
| COc1ccc(S(=O)(=O)NCCCN2CCOCC2)c2ccccc12 | 0.00569 |
| CCOC(=O)C(C)C1(O)c2ccccc2-c2ncccc21 (stereo not drawn) | 0.00533 |
| C=CCOc1ccc(CN(C)CC(=O)N(CC(C)C)c2c(N)n(CC(C)C)c(=O)[nH]c2=O)cc1 | 0.00414 |
| CC(=O)N(c1ccc(Br)cc1)C1C=CS(=O)(=O)C1 (stereo not drawn) | 0.00701 |
| COCCN(CC(=O)Nc1ccccc1C)S(=O)(=O)c1ccc(S(=O)(=O)N2CCCC2)cc1 | 0.0043 |

Lookup: Look up slope for this molecule: COc1cccc(C2=NOC(C(=O)Nc3cc(C)nn3-c3ccccc3)C2)c1OC (stereo not drawn)
Found: 0.00584

Lookup: Quick one: slope for Cc1nc2c(-c3ccccc3)c(C)[nH]n2c(=O)c1Cl ?
Found: 0.00434

Lookup: Query: slope; subject: CC(=O)Nc1ccc(NC(=O)C(C)Oc2ccccc2F)cc1 (stereo not drawn)
Found: 0.00945

* * *

assay: inhibitors of TNFa-induced NFkB p65 translocation, primary screen, imaging, HUVEC, MLSMR starter and 10KST1 sets (AID 438); settings: HUVEC TNFa-induced p65 nuclear translocation; at 2 µM, stronger effect = higher value, 0% TNFa-plus-vehicle, 100% no-TNFa wells;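 also: compound added about 3h40 before a 20 min TNFalpha stimulation; signal is the nuclear over cytoplasmic p65 intensity ratio per well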
ATTRIBUTE_MEASURED: inhibition (%)
# unit: % | format: bare number

| COMPOUND | inhibition (%) |
| --- | --- |
| Cc1ccc(Cl)cc1NC(=O)CSc1nnc(C)n1-c1ccccc1 | -5.4 |
| CS(=O)(=O)N(CC(=O)N1CCCCCC1)c1ccc(Br)cc1 | -38.8 |
| CN(C)S(=O)(=O)c1ccc(S(=O)(=O)N(Cc2ccco2)Cc2ccccc2Cl)cc1 | 4 |
| O=C(Nc1ccc2c(c1)nc1n2CCSC1)c1ccccc1 | -0.5 |
| CCCC(=O)Nc1ccc(NC(=O)C2CC2)cn1 | -17.9 |

Lookup: Field request: inhibition | item: CC1CCN(CC(O)COC2CCC(C(C)(C)C)CC2)CC1 (centres undefined)
Found: -6.8

Lookup: # lookup: inhibition of CC(=O)CCc1ccc(OCCCCn2cncn2)cc1
Found: 6.8

Lookup: What value of inhibition has been reported for the following compound? N#Cc1c(N)oc(-c2cccs2)c1-c1cccs1
Found: 2.6

Lookup: Given the entry CC(=O)Nc1ccc(-c2nn[nH]n2)cc1Cl , report its measured inhibition.
Found: -10.7

Lookup: Entry COC(=O)Cn1ncc2c(C)n(Cc3ccccc3)c(C)c2c1=O has what inhibition?
Found: -5.2

* * *

experiment: endothelial E-selectin expression blockers – imaging, HUVEC, immunofluorescence, MLSMR starter and 10KST1 sets, primary screen (AID 487); conditions: HUVEC TNFalpha-induced E-selectin immunofluorescence imaging, at 2 µM; measured here: cell number, toxicity;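 as to nuclei count: 100% = median nuclei count of all wells on the same plate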
Form field: nuclei count (one value per entry).
Report the figure in % without appending any unit label.

// known answers, use as guide
| MOLECULE | OBS_VALUE |
| --- | --- |
| COc1ccc(CCNC(=O)COc2ccc(S(=O)(=O)N3CCOCC3)cc2)cc1 | 116 |
| CSc1nsc(SCC(=O)N2CCc3ccccc32)n1 | 112 |
| O=C(NCCN1CCOCC1)c1ccc(CS(=O)(=O)Cc2ccccc2F)o1 | 108 |
| CCOc1cc(C(=O)NCC2CCCO2)cc(OCC)c1OCC (stereo unspecified) | 102 |
| CCCn1c(SCC(=O)NCc2ccco2)nc2c1c(=O)n(C)c(=O)n2C | 160 |

Lookup: Recorded nuclei count for CCn1c(Cc2ccccc2)nnc1SCC(=O)Nc1nc2ccccc2s1 , please?
Found: 97.6

Lookup: Form field: reported nuclei count of CC1CC(C)CN(c2nc3c(c(=O)[nH]c(=O)n3C)n2CCCSc2nc3ccccc3s2)C1 (stereo unspecified)
Found: 107

* * *

target: Voltage-gated potassium channel subunit beta-2 (Rattus norvegicus) (UniProt P62483); assay: inhibitors of rat Kvbeta2 reductase activity – biochemical, NADPH fluorescence, primary screen (AID 622); conditions: recombinant KvBeta, 4-cyanobenzaldehyde reduction, at 10 µM, stronger effect = higher value;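 also: slope of raw intensity against log time taken from 70 to 1610 s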
Short version: fluorescence slope at least -0.5 is true, less is false.

Please review the following examples before continuing.
| COMPOUND | GROUP_LABEL |
| --- | --- |
| Cc1nc2sc(C(c3cccc(F)c3)N3CCC(C)CC3)c(O)n2n1 (stereo unspecified) | false |
| CCOC(=O)c1cccc(NC(=O)CSc2nnc(C3CCCCC3)n2C)c1 | false |
| Cc1ccc(-n2nc(-c3cccs3)cc2C(=O)NCC2CCCO2)c(C)c1 (stereo unspecified) | true |
| C=CCOc1ccc(CN(C)CC(=O)N(CC(C)C)c2c(N)n(CC(C)C)c(=O)[nH]c2=O)cc1 | true |
| CC(C)NC(=O)c1ccccc1NC(=O)CCS(=O)(=O)Cc1ccccc1 | false |

Lookup: Is fluorescence slope at least -0.5? Consider Cn1cccc1-c1cc(C(=O)O)[nH]n1
Found: true

Lookup: Assess whether reported fluorescence slope for Cc1cc(C)n2nc(C(=O)NCc3ccco3)nc2n1 sits at -0.5 or higher.
Found: false

Lookup: Please check the record O=C(Cn1ncc2c(=O)oc3ccccc3c21)Nc1nc2ccccc2s1 and state if its fluorescence slope is at or above -0.5.
Found: false

Lookup: Decide: is the reported value of fluorescence slope for CCOC(=O)CN1CC23C=CC(O2)C(C(=O)NCc2ccc(F)cc2)C3C1=O (stereo unspecified) equal to or greater than -0.5?
Found: false

* * *

molecular target: Voltage-gated potassium channel subunit beta-2 (Rattus norvegicus); experiment: inhibitors of rat Kvbeta2 reductase activity – biochemical, NADPH fluorescence, primary screen (AID 622); conditions: recombinant KvBeta, 4-cyanobenzaldehyde reduction, at 10 µM, stronger effect = higher value;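 also: slope of raw intensity against log time taken from 70 to 1610 s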
ATTRIBUTE_MEASURED: fluorescence slope
// print number alone

| COMPOUND | ATTRIBUTE_MEASURED | OBS_VALUE |
| --- | --- | --- |
| O=C(CSc1nc(-c2ccc(F)cc2)cs1)N1CCOCC1 | fluorescence slope | -0.462 |
| CS(=O)(=O)c1ccc2nc(NC(=O)CCC(=O)c3cccs3)sc2c1 | fluorescence slope | -0.594 |
| CCOc1ccccc1NC(=O)N1C2CCCC1CC(NC(=O)C1CC1)C2 (centres undefined) | fluorescence slope | -0.515 |
| COC(=O)COc1nc(C)c(Br)c(OC)n1 | fluorescence slope | -0.615 |
| O=C(Nc1ccc(Cc2ccncc2)cc1)C1CC1 | fluorescence slope | -0.605 |

Lookup: What measured fluorescence slope goes with CC(=O)Nc1c(O)[nH]c2ccccc12 ?
Found: -0.414

Lookup: Requested read-out: fluorescence slope. Entry: CCc1cc2c(=O)c(-c3ccc4c(c3)OCCO4)coc2cc1OC(=O)c1ccco1
Found: -0.554

Lookup: What value of measured fluorescence slope is listed for CCCCOCCCNC(=O)COc1ccccc1 ?
Found: -0.398

Lookup: Request the reported fluorescence slope associated with Cc1nn(Cc2ccccc2)c2c1C(c1ccncc1)C(C#N)=C(N)O2 (centres undefined)
Found: -0.381
